# TESTED TARGET: Recombinant STAT6 protein (STAT6(W123-T658)) (Homo sapiens, UniProt P42226)
# Construct: Recombinant STAT6 protein (STAT6(W123-T658))
# ASSAY SUMMARY: STAT6 Fluorescence Polarization (FP) Assay
# COND: STAT6(W123-T658) 250 nM, probe 5-FAM-ApYKPFQDLI-NH2 2 nM, 45-minute incubation
pIC50: −log10 of the molar value.
Assign pIC50 to each entry below.

stdin: Could you share which pIC50 value was measured for Cc1ccc2onc(C(=O)N3CC[C@H]4CC[C@@H](C(=O)N5CC6CCC(C5)O6)N4C(=O)[C@@H](NC(=O)c4ccc5ccc([C@H](F)P(=O)(O)O)cc5c4)C3)c2c1 [Compound 377] ?
stdout: ≥ 6.52

stdin: Query CC(=O)N1CC[C@H]2CC[C@@H](C(=O)N3C[C@@H](C#N)[C@H](c4cc[nH]c(=O)c4)C3)N2C(=O)[C@@H](NC(=O)c2ccc3ccc(C(F)(F)P(=O)(O)O)cc3c2)C1 (single isomer, unassigned) [Compound 39] next
stdout: ≥ 6.52

stdin: Moving on to the next molecule: CC(=O)N1CC[C@H]2CC[C@@H](C(=O)N3CC[C@H](C#N)[C@H]3c3ccccc3)N2C(=O)[C@@H](NC(=O)c2cc3cc(C(F)(F)P(=O)(O)O)ccc3s2)C1 (relative stereo) [Compound 207]
stdout: 5.52 to 6.52

stdin: Param item: CCC(C)(C)c1ccc(N(C)C(=O)[C@@H]2CC[C@@H]3CCN(C(C)=O)C[C@H](NC(=O)c4cc5cc(C(F)(F)P(=O)(O)O)ccc5s4)C(=O)N32)cc1 [Compound 159]
stdout: 5.52 to 6.52

stdin: Another molecule: CC(=O)N1CC(N(C)C(=O)[C@@H]2CC[C@@H]3CCN(C(C)=O)C[C@H](NC(=O)c4cc5cc(C(F)(F)P(=O)(O)O)ccc5s4)C(=O)N32)C1 [Compound 171]
stdout: 5.52 to 6.52

stdin: Cool, now C[C@H](CC(=O)N1CC[C@H]2CC[C@@H](C(=O)N3CCCC3)N2C(=O)[C@@H](NC(=O)c2cc3cc(C(F)(F)P(=O)(O)O)ccc3s2)C1)c1ccccc1 [Compound 260]
stdout: 5.52 to 6.52

stdin: Next: O=C(N[C@H]1CCN(C(c2ccccc2)c2ccccc2)C[C@H]2CC[C@@H](C(=O)N3CC(c4cccnc4)C3)N2C1=O)c1cc2cc(C(F)(F)P(=O)(O)O)ccc2s1 [Compound 210]
stdout: 4.52 to 5.52

stdin: // query: O=C(N[C@H]1CN(S(=O)(=O)CCc2ccccc2)CC[C@H]2CC[C@@H](C(=O)Nc3ccc(-c4ccccc4)cc3)N2C1=O)c1cc2cc(C(F)(F)P(=O)(O)O)ccc2s1 [Compound 268]
stdout: 5.52 to 6.52

stdin: Please answer likewise for CC(=O)N1CC[C@H]2CC[C@@H](C(=O)Nc3c(C)cc(-c4ccccc4)cc3C)N2C(=O)[C@@H](NC(=O)c2cc3cc(C(F)(F)P(=O)(O)O)ccc3s2)C1 [Compound 44]
stdout: 4.52 to 5.52

stdin: Also need COC(=O)N1CC[C@H]2CC[C@@H](C(=O)N3CCCC3)N2C(=O)[C@@H](NC(=O)c2cc3cc(C(F)(F)P(=O)(O)O)ccc3s2)C1 [Compound 262] , thanks.
stdout: 5.52 to 6.52

----------
Kindly state IC50 for each of the entries shown.
# Test system: pY641-STAT6 in Peripheral Blood Mononuclear Cells (PBMC)
# ASSAY SUMMARY: MSD-pSTAT-PBMC Assay (pSTAT6, IL-4 stimulated)
# Type: cell-based, Human
# COND: Homo sapiens, compound 3 hrs, then 1 ng/mL IL-4 for 10 min

stdin: Requested read-out IC50, target or system pY641-STAT6 in Peripheral Blood Mononuclear Cells (PBMC), entry CC(=O)N1CC[C@H]2CC[C@@H](C(=O)N(C)c3ccccc3)N2C(=O)[C@@H](NC(=O)/C=C/c2ccc(C(F)(F)P(=O)(OCOC(=O)C(C)(C)C)OCOC(=O)C(C)(C)C)cc2)C1 [Compound 315]
stdout: 100 to 1000 nM

stdin: What about this compound? CC(=O)N1CC[C@H]2CC[C@@H](C(=O)N(C)c3ccccc3)N2C(=O)[C@@H](NC(=O)c2cc3cc(C(=O)P(=O)(OCOC(=O)C(C)(C)C)OCOC(=O)C(C)(C)C)ccc3s2)C1 [Compound 307]
stdout: > 3000 nM

stdin: Note, next up: CCCOC(=O)[C@H](C)NP(=O)(Oc1ccccc1)C(F)c1ccc2ccc(C(=O)N[C@H]3CN(S(=O)(=O)CCC)CC[C@H]4CC[C@@H](C(=O)N5CCOCC5)N4C3=O)cc2c1 (some centres unmarked) [Compound 427]
stdout: > 3000 nM

stdin: Same lookup for CCCOC(=O)[C@H](C)NP(=O)(Oc1ccccc1)[C@H](F)c1ccc2ccc(C(=O)N[C@H]3CN(C(=O)c4noc5ccc(C)cc45)CC[C@H]4CC[C@@H](C(=O)N5C[C@H](c6ccn(C)c(=O)c6)CC56CC6)N4C3=O)cc2c1 (some centres unmarked) [Compound 419] , please.
stdout: ≤ 100 nM

stdin: Field entry: COCC(C)(C)OC(=O)OCOP(=O)(OCOC(=O)OC(C)(C)COC)C(F)(F)c1ccc2sc(C(=O)N[C@H]3CN(C(C)=O)CC[C@H]4CC[C@@H](C(=O)N(C)c5ccccc5)N4C3=O)cc2c1 [Compound 287]
stdout: > 3000 nM

----------
# Test system: pY641-STAT6 in Peripheral Blood Mononuclear Cells (PBMC)
# ASSAY SUMMARY: MSD-pSTAT-PBMC Assay (pSTAT6, IL-4 stimulated)
# Assay type: cell-based, Human
# COND: Homo sapiens, compound 3 hrs, then 1 ng/mL IL-4 for 10 min
pIC50: −log10 of the molar value.
Provide the reported pIC50 of each item.

stdin: Need pIC50, item CCCC(=O)SCCOP(=O)(OCCSC(=O)CCC)C(F)(F)c1ccc2ccc(C(=O)N[C@H]3CN(C(=O)c4n[nH]c5ccc(C)cc45)CC[C@H]4CC[C@@H](C(=O)N5CC(c6ccccc6)[C@@H](C#N)C5)N4C3=O)cc2c1 (relative stereo)
stdout: ≥ 7.00

stdin: Field entry: `CCCC(=O)SCCOP(=O)(OCCSC(=O)CCC)C(F)(F)c1ccc2ccc(C(=O)N[C@H]3CN(CC(F)F)CC[C@H]4CC[C@@H](C(=O)N(C)C5CCN(S(C)(=O)=O)CC5)N4C3=O)cc2c1`
stdout: 6.00 to 7.00

stdin: And CCCOC(=O)[C@H](C)NP(=O)(Oc1ccccc1)C(F)c1ccc2ccc(C(=O)N[C@H]3CN(C(=O)c4noc5ccc(C)cc45)CC[C@H]4CC[C@@H](C(=O)N5C[C@@H](C)O[C@@H](C)C5)N4C3=O)cc2c1 (some centres unmarked) ?
stdout: ≥ 7.00

stdin: Follow-up item: CCCC(=O)SCCOP(=O)(OCOC(=O)OC(C)C)C(F)(F)c1ccc2ccc(C(=O)N[C@H]3CN(C(C)=O)CC[C@H]4CC[C@@H](C(=O)N5C[C@H](c6cc[nH]c(=O)c6)[C@@H](C#N)C5)N4C3=O)cc2c1 (single isomer, unassigned)
stdout: 6.00 to 7.00

stdin: Can you handle CCCOC(=O)[C@H](C)NP(=O)(Oc1ccccc1)[C@@H](F)c1ccc2ccc(C(=O)N[C@H]3CN(C(=O)c4noc5ccc(C)cc45)CC[C@H]4CC[C@@H](C(=O)N5C[C@@H](c6ccn(C)c(=O)c6)CC56CC6)N4C3=O)cc2c1 (some centres unmarked) next?
stdout: ≥ 7.00

stdin: Please answer likewise for `Cc1ccc2onc(C(=O)N3CC[C@H]4CC[C@@H](C(=O)N5C[C@H](c6ccn(C)c(=O)c6)CC56CC6)N4C(=O)[C@@H](NC(=O)c4ccc5ccc(C(F)(F)P(=O)(OCCSC(=O)CC(C)C)OCCSC(=O)CC(C)C)cc5c4)C3)c2c1`
stdout: ≥ 7.00

stdin: Try the molecule CCN1CC[C@H]2CC[C@@H](C(=O)N3C[C@@H](C#N)[C@H](c4ccccc4)C3)N2C(=O)[C@@H](NC(=O)c2cc3cc([C@H](F)P(=O)(OCCSC(=O)CC(C)C)OCCSC(=O)CC(C)C)ccc3s2)C1 (single isomer, unassigned)
stdout: 6.00 to 7.00

stdin: Queued: CC(=O)N1CC[C@H]2CC[C@@H](C(=O)N(C)c3ccccc3)N2C(=O)[C@@H](NC(=O)c2cc3cc(C(F)(F)P(=O)(N[C@H](C)C(=O)OC(C)C)Oc4ccccc4)ccc3s2)C1 (some centres unmarked)
stdout: < 5.52

----------
# TESTED TARGET: Recombinant STAT6 protein (STAT6(W123-T658)) (Homo sapiens, UniProt P42226)
# Construct: Recombinant STAT6 protein (STAT6(W123-T658))
# Sequence (P42226 123-658): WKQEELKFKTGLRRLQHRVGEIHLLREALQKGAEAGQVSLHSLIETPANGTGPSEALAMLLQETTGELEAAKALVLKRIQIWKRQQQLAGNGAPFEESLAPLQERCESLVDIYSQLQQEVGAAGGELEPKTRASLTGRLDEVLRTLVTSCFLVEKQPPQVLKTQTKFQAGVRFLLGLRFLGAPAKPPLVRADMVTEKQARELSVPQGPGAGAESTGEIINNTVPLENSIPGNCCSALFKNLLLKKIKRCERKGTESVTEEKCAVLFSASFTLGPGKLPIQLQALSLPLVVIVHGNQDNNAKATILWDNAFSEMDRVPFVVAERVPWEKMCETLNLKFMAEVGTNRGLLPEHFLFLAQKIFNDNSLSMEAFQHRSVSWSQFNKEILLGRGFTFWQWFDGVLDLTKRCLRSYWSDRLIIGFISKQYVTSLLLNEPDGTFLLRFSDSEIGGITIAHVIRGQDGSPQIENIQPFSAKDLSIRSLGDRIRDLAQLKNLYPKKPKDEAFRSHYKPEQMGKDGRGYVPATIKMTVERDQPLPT
# ASSAY SUMMARY: STAT6 Fluorescence Polarization (FP) Assay
# COND: STAT6(W123-T658) 250 nM, probe 5-FAM-ApYKPFQDLI-NH2 2 nM, 45-minute incubation
# Method: STAT6 Fluorescence Polarization (FP) Assay An FP assay was developed to determine IC50 values for test substances. […] Reaction components were mixed, and FP was measured after 45-minute incubation at room temperature using a Tecan Spark multimode plate reader. FP signal (mP) was plotted against the log concentration of the test substances and IC50 values were calculated by nonlinear regression analysis using GraphPad Prism software. […]
MEASURE: IC50

stdin: Suppose we examine the compound `CN(C(=O)[C@@H]1CC[C@@H]2CCN(CC(F)(F)F)C[C@H](NC(=O)c3cc4cc(C(F)(F)P(=O)(O)O)ccc4[nH]3)C(=O)N21)c1ccccc1` ; what IC50 value has been reported?
stdout: 0.3 to 3 µM

stdin: Moving on to the next compound: CC(=O)N1CC[C@H]2CC[C@@H](C(=O)N3CC(c4cn[nH]c4)[C@@H](C#N)C3)N2C(=O)[C@@H](NC(=O)c2cc3cc(C(F)(F)P(=O)(O)O)ccc3s2)C1 (relative stereo)
stdout: 0.3 to 3 µM

stdin: Also check `CC(=O)N1CC[C@H]2CC[C@@H](C(=O)N3CC[C@H](C(=O)N4CCCCC4)C3)N2C(=O)[C@@H](NC(=O)c2cc3cc(C(F)(F)P(=O)(O)O)ccc3s2)C1`
stdout: 0.3 to 3 µM

stdin: And what about the compound `CC(=O)N1CC[C@H]2CC[C@@H](C(=O)Nc3ccc(-c4ccccc4)cc3)N2C(=O)[C@@H](NC(=O)/C=C/c2ccc(C(F)(F)P(=O)(O)O)cc2)C1` ?
stdout: 3 to 30 µM

stdin: And what about the compound `Cc1ccc2onc(C(=O)N3CC[C@H]4CC[C@@H](C(=O)N5CCOCC5)N4C(=O)[C@@H](NC(=O)c4cc(C#N)c5ccc(CP(=O)(O)O)cc5c4)C3)c2c1` ?
stdout: 0.3 to 3 µM
